biological target: CDK2/CyclinE1 (Homo sapiens (Human), UniProt P24941); assay: CDK2/CyclinE1 kinase inhibitory activity (Caliper mobility shift); conditions: read-out: CDK2/Cyclin El IC50
Measured quantity: IC50

[[record]]
compound = "CS(=O)(=O)N1CCC(Nc2ncc(Br)c(OC3CCCCCC3O)n2)CC1 (single isomer, unassigned) [Example 145b]"
assay_value = "< 10 nM"


# per-item lookup of IC50; items listed below
1. N#Cc1cnc(Nc2ccc(S(N)(=O)=O)cc2)nc1O[C@@H]1CCCC[C@@H]1O (single isomer, unassigned) [Example 2b]
2. CC(C)NS(=O)(=O)c1ccc(Nc2ncc(C#N)c(OC3CCCC3)n2)cc1
3. CC1(O)CCCCC1Oc1nc(Nc2ccc(S(N)(=O)=O)cc2)ncc1C#N (single isomer, unassigned) [Example 24b]
4. NS(=O)(=O)c1ccc(Nc2ncc(C(F)(F)F)c(OC3COCCC3O)n2)cc1 (single isomer, unassigned) [Example 115b]
5. CC1(O)COCCC1Oc1nc(NC2CCN(S(C)(=O)=O)CC2)ncc1C#N (single isomer, unassigned) [Example 45a]
6. C[C@@H]1C[C@H](O)CCN1c1nc(Nc2ccc(S(N)(=O)=O)cc2)ncc1C#N

10 to 100 nM
< 10 nM
10 to 100 nM
10 to 100 nM
< 10 nM
< 10 nM

---

molecular target: CDK7/CyclinH/MAT1 (Homo sapiens (Human), UniProt P50613); experiment: CDK7/CyclinH/MAT1 kinase inhibitory activity (Caliper mobility shift)
Sequence (P50613 whole entry): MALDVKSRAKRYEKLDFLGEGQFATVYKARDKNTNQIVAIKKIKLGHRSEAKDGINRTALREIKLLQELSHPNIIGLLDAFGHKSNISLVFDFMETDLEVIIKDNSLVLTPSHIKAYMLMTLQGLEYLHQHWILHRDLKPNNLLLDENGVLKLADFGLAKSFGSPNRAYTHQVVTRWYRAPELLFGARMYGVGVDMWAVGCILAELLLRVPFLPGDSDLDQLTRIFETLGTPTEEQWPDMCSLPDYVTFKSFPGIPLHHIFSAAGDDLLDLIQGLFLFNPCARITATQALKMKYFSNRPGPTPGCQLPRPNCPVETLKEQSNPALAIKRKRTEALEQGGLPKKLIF
Sequence (P51946 whole entry partner): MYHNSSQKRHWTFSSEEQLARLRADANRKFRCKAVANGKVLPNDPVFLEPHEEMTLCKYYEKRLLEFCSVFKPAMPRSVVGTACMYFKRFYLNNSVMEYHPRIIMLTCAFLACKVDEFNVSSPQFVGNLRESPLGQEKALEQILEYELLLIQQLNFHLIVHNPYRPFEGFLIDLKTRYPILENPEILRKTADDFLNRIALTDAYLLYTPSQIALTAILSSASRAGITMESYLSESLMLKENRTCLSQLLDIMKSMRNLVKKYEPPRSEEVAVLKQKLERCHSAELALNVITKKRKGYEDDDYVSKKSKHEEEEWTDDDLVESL
Sequence (P51948 whole entry partner): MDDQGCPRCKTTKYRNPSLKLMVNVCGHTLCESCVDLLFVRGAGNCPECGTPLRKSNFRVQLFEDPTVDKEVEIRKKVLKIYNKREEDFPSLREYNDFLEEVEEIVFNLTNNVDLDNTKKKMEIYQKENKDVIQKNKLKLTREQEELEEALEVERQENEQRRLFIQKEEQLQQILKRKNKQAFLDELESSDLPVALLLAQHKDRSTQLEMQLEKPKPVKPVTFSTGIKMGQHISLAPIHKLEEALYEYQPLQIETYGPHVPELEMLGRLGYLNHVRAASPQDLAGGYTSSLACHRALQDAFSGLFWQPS
pIC50: −log10 of the molar value.
Measured quantity: pIC50

Completed entries (count: 3):
[[record]]
compound = "Cn1cc(S(=O)(=O)N2CCC(Nc3ncc(C#N)c(OC4CC5(CCC5)C4)n3)CC2)cn1 [Example 59]"
measured_quantity = "pIC50"
assay_value = "6.00 to 7.00"

[[record]]
compound = "Cn1cnc(S(=O)(=O)N2CCC(Nc3ncc(C#N)c(OC4CCCC4(C)O)n3)CC2)c1 (single isomer, unassigned) [Example 50a]"
measured_quantity = "pIC50"
assay_value = "6.00 to 7.00"

[[record]]
compound = "N#Cc1cnc(Nc2ccc(S(N)(=O)=O)cc2)nc1OCC1(CO)CCCC1 [Example 15]"
measured_quantity = "pIC50"
assay_value = "6.00 to 7.00"


Would you mind listing pIC50 for each of the following compounds?
1. N#Cc1cnc(Nc2ccc(S(N)(=O)=O)cc2)nc1O[C@@H]1CCCC[C@@H]1O (single isomer, unassigned) [Example 2a]
2. C[C@@H]1CCCN(c2nc(Nc3ccc(S(N)(=O)=O)cc3)ncc2C#N)C1 [Example 72]
3. NS(=O)(=O)c1ccc(Nc2ncc(C(F)(F)F)c(OC3CCCCC3O)n2)cc1 (single isomer, unassigned) [Example 111b]

≤ 6.00
≤ 6.00
6.00 to 7.00

Give recorded pIC50 with CDK7/CyclinH/MAT1 (Homo sapiens (Human), UniProt P50613) for the following compound: CC(C)NS(=O)(=O)c1ccc(Nc2ncc(C3CC3)c(O[C@@H]3CCC[C@@H]3O)n2)cc1 (single isomer, unassigned) [Example 134a] 6.00 to 7.00

---

Provide the reported IC50 of each item.
target: CDK4/Cyclin D1 (Homo sapiens (Human)); assay: CDK4/CyclinD1 kinase inhibitory activity (Caliper mobility shift)
Sequence (P11802 whole entry): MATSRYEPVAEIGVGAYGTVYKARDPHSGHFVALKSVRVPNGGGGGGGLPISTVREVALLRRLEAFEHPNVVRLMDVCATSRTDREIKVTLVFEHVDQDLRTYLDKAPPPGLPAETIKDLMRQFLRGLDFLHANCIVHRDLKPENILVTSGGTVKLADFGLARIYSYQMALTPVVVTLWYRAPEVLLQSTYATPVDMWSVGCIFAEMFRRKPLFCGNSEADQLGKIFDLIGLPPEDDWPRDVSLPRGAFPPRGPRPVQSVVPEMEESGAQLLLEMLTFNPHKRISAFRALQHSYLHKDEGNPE
Sequence (P24385 whole entry partner): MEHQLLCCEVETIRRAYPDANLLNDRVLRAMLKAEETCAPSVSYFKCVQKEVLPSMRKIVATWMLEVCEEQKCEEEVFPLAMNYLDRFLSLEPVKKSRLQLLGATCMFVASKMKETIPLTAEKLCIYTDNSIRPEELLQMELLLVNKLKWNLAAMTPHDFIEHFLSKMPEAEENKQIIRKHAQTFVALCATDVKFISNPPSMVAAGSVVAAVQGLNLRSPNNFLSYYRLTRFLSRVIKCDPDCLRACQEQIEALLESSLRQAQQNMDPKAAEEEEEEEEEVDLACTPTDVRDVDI

Example entries begin here.
[[record]]
compound = "Cc1cnc(Nc2ccc(S(=O)(=O)NC3CC3)cc2)nc1OC1CCCC1O (single isomer, unassigned) [Example 146a]"
assay_value = "≥ 1 µM"

[[record]]
compound = "Cn1cc(S(=O)(=O)N2CCC(Nc3ncc(C#N)c(OCC4(C)CCC4)n3)CC2)cn1 [Example 60]"
assay_value = "< 0.01 µM"

[[record]]
compound = "C[C@]1(O)CC(F)(F)C[C@H]1Oc1nc(NC2CCN(S(C)(=O)=O)CC2)ncc1C#N (relative stereo) [Example 4a]"
assay_value = "0.01 to 0.1 µM"


Sample O=S(=O)(NC1CCOCC1)c1ccc(Nc2ncc(Cl)c(O[C@@H]3CCC[C@@H]3O)n2)cc1 (single isomer, unassigned) [Example 130a] — what was its IC50? 0.1 to 1 µM

Reference for the values: patent US20240166635A1
